- TEST_TARGET: Gβ1γ2 (Homo sapiens, UniProt P62873)
Assign IC50 to each entry below.
Give your result in µM as a bare value.

Need IC50, item O=C1c2ccccc2C(=O)c2c1ccc(C(=O)O)c2-c1ccc2ccccc2c1 [compound 9608]
16.5

Then what about the compound C[N+]1(CCC[N+]2(C)C[C@H]3[C@H](C2)[C@H]2C=C[C@@H]3CC2)CCOCC1 (stereo partly shown) [compound 90831] ?
92.9

Then what about the compound N=C(N)SCCN1CCCCC1 [compound 121771] ?
198

Then what about the compound O=C1c2cc([N+](=O)[O-])ccc2-c2ccc3c4ccc5c6c(ccc(c7ccc1c2c73)c64)C(=O)c1cc([N+](=O)[O-])ccc1-5 [compound 51535] ?
2.4

Then what about the compound C[N+]1(CC[N+]2(C)CCCC2c2cccnc2)CCCC1c1cccnc1 (stereo not shown) [compound 3284] ?
262

Then what about the compound O=C(O)C1CCCCC1c1c2ccc(=O)c(O)c-2oc2c(O)c(O)ccc12 (stereo not shown) [compound 119910] ?
0.2

Then what about the compound CC1C2C=CC1C(c1c3ccc(=O)c(O)c-3oc3c(O)c(O)ccc13)C2C(=O)O (stereo not shown) [compound 119913] ?
0.7

Then what about the compound CN(C)C1C(=O)C(C(N)=O)=C(O)C2(O)C(=O)C3=C(O)c4c(O)cccc4C(C)(O)C3CC12 (stereo not shown) [compound 69343] ?
16.8

Then what about the compound O=C(c1ccc([N+](=O)[O-])cc1)C(Br)C(Br)c1ccnc2ccccc12 (stereo not shown) [compound 150289] ?
42.5

Then what about the compound Nc1ccc(S(=O)(=O)c2ccc(NCN3C(=O)NC(=O)C(=O)C3=O)cc2)cc1 [compound 34238] ?
42

Then what about the compound C[C@H]1CCCC2(CC[N+](C)(CCC[N+](C)(C)C)CC2)C1 (stereo partly shown) [compound 95676] ?
182

Then what about the compound O=C1c2ccccc2C(=O)c2c(Nc3cc4c5c(ccc6c7ccc8c9c(cc(Nc%10cccc%11c%10C(=O)c%10ccccc%10C%11=O)c(c3c56)c97)-c3ccccc3C8=O)C(=O)c3ccccc3-4)cccc21 [compound 23128] ?
27

Then what about the compound NCCNC(=S)S [compound 83224] ?
24.9

Then what about the compound N=C1C(O)C2(I)c3ccccc3N3C(=N)C(O)C4c5ccccc5N1C4C32 (stereo not shown) [compound 118176] ?
8.1

Then what about the compound CCC(=O)OCN1C(=O)C=CC1=O [compound 19630] ?
53.6

Then what about the compound O=C1c2ccccc2C(=O)c2c(NC3CCCCC3)ccc(Nc3ccc(S(=O)(=O)O)cc3)c21 [compound 128437] ?
24
